Value source: patent US9023821B2

Form field: Level of intensity of expression in log2 measured with the Agilent chips, FC (one value per entry).
- Test system: human airway epithelial cells (HAECs)
- Method Notes: Agilent miRNA chips, miRNA expression at four stages of differentiation of HAECs
- Experimental Parameters: stage FC; Table VI
- Text: In parallel with the high-throughput sequencing of the microRNAs, the repertoire of expression of the microRNAs (microRNAome) is investigated using the technology of Agilent® microRNA chips. […]
Provide only the numeric value, understood in log2.

Take a look at these entries with their results.
Substance | Measurement Unit | Value Observed
hsa-miR-34a: human miRNA, SEQ ID No. 38 (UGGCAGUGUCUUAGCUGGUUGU; expressed or natural sequence; listed as Homo sapiens) | log2 | 10.35
hsa-miR-29c: human miRNA, SEQ ID No. 32 (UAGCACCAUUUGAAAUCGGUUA; expressed or natural sequence; listed as Homo sapiens) | log2 | 10.38
hsa-miR-26b: human miRNA, SEQ ID No. 29 (UUCAAGUAAUUCAGGAUAGGU; expressed or natural sequence; listed as Homo sapiens) | log2 | 9.54

Data request: Reported Level of intensity of expression in log2 measured with the Agilent chips, FC for hsa-let-7c: human miRNA, SEQ ID No. 159 (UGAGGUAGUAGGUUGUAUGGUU; expressed or natural sequence; listed as Homo sapiens) : what is it?
Data returned: 10.00

Data request: Field request: Level of intensity of expression in log2 measured with the Agilent chips, FC | item: hsa-miR-30d: human miRNA, SEQ ID No. 35 (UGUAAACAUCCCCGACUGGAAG; expressed or natural sequence; listed as Homo sapiens)
Data returned: 8.88

---

- Test system: human airway epithelial cells (HAECs)
- Method Notes: High-throughput sequencing (HTS) of miRNAs at four stages of differentiation of HAECs
- Experimental Parameters: HTS, ALI-FC
- Excerpt: The total RNAs were extracted from HAECs cultivated at the air-liquid interface at four stages of differentiation: ALI-D0 (0 day), ALI-D7 (7 days), ALI-FC (during appearance of the first cilia at about 14 days) and ALI-WD (wholly differentiated at about 21 days). The cells are lysed in reagent with Trizol® (Invitrogen). The total RNAs containing small RNAs and microRNAs are purified on Qiagen RNEasy columns (Qiagen) according to the supplier's instructions. […]
Readout: Abundance (%), FC
Field format: number, assumed %, no unit text.

Before answering, review these 5 worked examples.
Substance | Assayed System | Abundance (%), FC
hsa-miR-29a: human miRNA, SEQ ID No. 31 (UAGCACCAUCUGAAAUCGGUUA; expressed or natural sequence; listed as Homo sapiens) | human airway epithelial cells (HAECs) | 6.02
hsa-miR-378: human miRNA, SEQ ID No. 43 (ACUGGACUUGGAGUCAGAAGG; expressed or natural sequence; listed as Homo sapiens) | human airway epithelial cells (HAECs) | 1.04
hsa-miR-17: human miRNA, SEQ ID No. 11 (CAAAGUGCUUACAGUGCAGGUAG; expressed or natural sequence; listed as Homo sapiens) | human airway epithelial cells (HAECs) | 0.76
hsa-miR-205: human miRNA, SEQ ID No. 20 (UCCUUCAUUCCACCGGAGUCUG; expressed or natural sequence; listed as Homo sapiens) | human airway epithelial cells (HAECs) | 3.76
hsa-miR-449c: human miRNA, SEQ ID No. 201 (UAGGCAGUGUAUUGCUAGCGGCUGU; expressed or natural sequence; listed as Homo sapiens) | human airway epithelial cells (HAECs) | 0.32

Data request: Kindly state the measured Abundance (%), FC obtained for hsa-miR-191: human miRNA, SEQ ID No. 13 (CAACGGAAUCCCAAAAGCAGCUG; expressed or natural sequence; listed as Homo sapiens) with human airway epithelial cells (HAECs).
Data returned: 18.46

Data request: Hello, I am looking for reported Abundance (%), FC with human airway epithelial cells (HAECs) for hsa-miR-23b: human miRNA, SEQ ID No. 26 (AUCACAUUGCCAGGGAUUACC; expressed or natural sequence; listed as Homo sapiens) . Could you help?
Data returned: 7.92

Data request: Lab note: need Abundance (%), FC for hsa-miR-29c: human miRNA, SEQ ID No. 32 (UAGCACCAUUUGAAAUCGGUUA; expressed or natural sequence; listed as Homo sapiens) on human airway epithelial cells (HAECs), anyone have it?
Data returned: 4.95

---

Parameter: Level of intensity of expression in log2 At the differentiated stage (WD) measured in HTS. Scope: all listed entries.
- System: human airway epithelial cells (HAECs)
- Method Notes: High-throughput sequencing (HTS) of miRNAs at four stages of differentiation of HAECs
- Experimental Parameters: healthy human airway epithelial tissue, stage WD
Please format your answer as a value with the unit trailing.

See these solved cases before continuing.
Substance | Value Observed
hsa-miR-449c: human miRNA, SEQ ID No. 201 (UAGGCAGUGUAUUGCUAGCGGCUGU; expressed or natural sequence; listed as Homo sapiens) | 10.98 log2
hsa-miR-106b: human miRNA, SEQ ID No. 2 (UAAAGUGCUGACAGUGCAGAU; expressed or natural sequence; listed as Homo sapiens) | 5.39 log2
hsa-miR-374a: human miRNA, SEQ ID No. 42 (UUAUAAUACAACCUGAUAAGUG; expressed or natural sequence; listed as Homo sapiens) | 11.87 log2

Proceed to the following item.
Data request: What value of Level of intensity of expression in log2 At the differentiated stage (WD) measured in HTS has been recorded for this entry: hsa-miR-96: human miRNA, SEQ ID No. 51 (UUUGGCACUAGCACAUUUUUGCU; expressed or natural sequence; listed as Homo sapiens)
Data returned: 12.65 log2

---

- Tested on: basal cells and pyramidal cells of the airway epithelium
- Method Notes: miRNA expression in sorted basal cells versus pyramidal cells (ciliated + secretory), HTS and Agilent chips
- Set-up: species or system human
- Experimental Parameters: pyramidal cells (ciliated + secretory)
Binning of Intensity of the level of expression in log2 in pyramidal cells (323(−)) into classes: 0: < 5 log2; 1: ≥ 5 log2 and < 7 log2; 2: ≥ 7 log2

Answered cases to consult:
Substance | Cat
hsa-miR-26a: human miRNA, SEQ ID No. 28 (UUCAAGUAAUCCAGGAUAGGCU; expressed or natural sequence; listed as Homo sapiens) | 2
hsa-miR-29a: human miRNA, SEQ ID No. 31 (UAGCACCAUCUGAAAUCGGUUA; expressed or natural sequence; listed as Homo sapiens) | 2
hsa-miR-125a-5p: human miRNA, SEQ ID No. 3 (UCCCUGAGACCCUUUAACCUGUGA; expressed or natural sequence; listed as Homo sapiens) | 1
hsa-miR-130a: human miRNA, SEQ ID No. 4 (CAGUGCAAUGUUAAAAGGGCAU; expressed or natural sequence; listed as Homo sapiens) | 0
hsa-miR-92b: human miRNA, SEQ ID No. 49 (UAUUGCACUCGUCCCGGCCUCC; expressed or natural sequence; listed as Homo sapiens) | 0

Data request: Please classify: hsa-miR-106b: human miRNA, SEQ ID No. 2 (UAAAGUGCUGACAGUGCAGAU; expressed or natural sequence; listed as Homo sapiens)
Data returned: 1

Data request: Looking at hsa-miR-939: human miRNA, SEQ ID No. 50 (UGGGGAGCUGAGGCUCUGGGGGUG; expressed or natural sequence; listed as Homo sapiens) , which class would you pick?
Data returned: 1

Data request: Please report the category associated with hsa-miR-27b: human miRNA, SEQ ID No. 30 (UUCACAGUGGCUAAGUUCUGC; expressed or natural sequence; listed as Homo sapiens) , nothing else.
Data returned: 1

---

- System: human airway epithelial cells (HAECs)
- Method Notes: High-throughput sequencing (HTS) of miRNAs at four stages of differentiation of HAECs
- Experimental Parameters: stage D0; Table VI
Readout: Level of intensity of expression in log2 measured by high-throughput sequencing, D0 (log2)
Write it as a number; the unit log2 goes unstated.

Some substances with recorded Level of intensity of expression in log2 measured by high-throughput sequencing, D0:
Substance | Value Observed
hsa-miR-15a: human miRNA, SEQ ID No. 9 (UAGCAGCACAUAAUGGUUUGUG; expressed or natural sequence; listed as Homo sapiens) | 6.11
hsa-let-7e: human miRNA, SEQ ID No. 160 (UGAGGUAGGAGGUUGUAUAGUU; expressed or natural sequence; listed as Homo sapiens) | 7.42

Please examine the following record next.
Data request: Given the entry hsa-miR-365: human miRNA, SEQ ID No. 41 (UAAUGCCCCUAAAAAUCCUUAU; expressed or natural sequence; listed as Homo sapiens) , report its measured Level of intensity of expression in log2 measured by high-throughput sequencing, D0.
Data returned: 0.41
